Source of measurements: patent US9725445B2

biological target: JAK2 (Homo sapiens (Human)); assay: Jak biochemical HTRF assay, JAK2; conditions: HTRF biochemical assay, recombinant GST-tagged catalytic domain; read-out: JAK2 IC50
Sequence (O60674 849-1124): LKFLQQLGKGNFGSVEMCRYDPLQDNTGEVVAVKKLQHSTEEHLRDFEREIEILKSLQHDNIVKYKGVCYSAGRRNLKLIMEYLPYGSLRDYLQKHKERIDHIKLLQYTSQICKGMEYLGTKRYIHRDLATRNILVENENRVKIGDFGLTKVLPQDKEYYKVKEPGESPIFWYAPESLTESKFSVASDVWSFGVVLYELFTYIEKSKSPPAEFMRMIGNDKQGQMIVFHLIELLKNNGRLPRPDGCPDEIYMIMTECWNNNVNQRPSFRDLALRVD
The entries below come with measured IC50 values attached.
observation type: IC50 (nM)

- compound: "N#C[C@H]1CCCC[C@@H]1n1nc(Nc2cccc(Cn3cnnc3)c2)c2c(=O)[nH]ccc21"
  numeric result: 1.2
- compound: "CC(C)[C@H](C)N1Cc2ccc(Nc3nn([C@H]4CCCC[C@@H]4C#N)c4cc[nH]c(=O)c34)cc2C1"
  numeric result: 0.43
- compound: "Cc1nc2ccc(Nc3nn([C@H]4CCCC[C@@H]4C#N)c4cc[nH]c(=O)c34)cc2s1"
  numeric result: 1.6
- compound: "CN(C)[C@H]1CC[C@H](n2nc(Nc3ccc(Cl)c(F)c3)c3c(=O)[nH]ccc32)[C@@H](C#N)C1"
  numeric result: 14
- compound: "C[C@H](N[C@H]1CC[C@H](n2nc(Nc3ccc(OC(F)(F)F)cc3)c3c(=O)[nH]ccc32)[C@@H](C#N)C1)C1CC1"
  numeric result: 37
- compound: "CC1(C)OCC(C)(c2cccc(Nc3nn([C@H]4CCCC[C@@H]4C#N)c4cc[nH]c(=O)c34)c2)O1 (stereo partly drawn)"
  numeric result: 16
- compound: "N#C[C@H]1CCCC[C@@H]1n1nc(Nc2ccc(-c3ccno3)cc2)c2c(=O)[nH]ccc21"
  numeric result: 3.2
- compound: "CC(C)C(c1ccc(Nc2nn([C@H]3CCCC[C@@H]3C#N)c3cc[nH]c(=O)c23)cc1)n1ccnn1 (single isomer, unassigned) [Example 15-24]"
  numeric result: 0.27
- compound: "CC(C)(C)N1Cc2cc(Nc3nn([C@H]4CCCC[C@@H]4C#N)c4cc[nH]c(=O)c34)ccc2S1(=O)=O"
  numeric result: 0.19
- compound: "N#C[C@H]1CCCC[C@@H]1n1nc(Nc2ccc(C(O)C(F)F)cc2)c2c(=O)[nH]ccc21 (mixture of isomers) [Example 10-1]"
  numeric result: 0.61
- compound: "Cc1cc(Nc2nn([C@@H]3CCCCC[C@H]3C#N)c3cc[nH]c(=O)c23)ccc1C(=O)N1CCCC1 (single isomer, unassigned)"
  numeric result: 0.41
- compound: "N#CCC1(n2nc(Nc3ccc(C(N)C(F)F)cc3)c3c(=O)[nH]ccc32)CCCCC1 (single isomer, unassigned) [Example 9-2]"
  numeric result: 0.51
- compound: "N#C[C@H]1CCCC[C@@H]1n1nc(Nc2ccc(-c3nccs3)cc2)c2c(=O)[nH]ccc21"
  numeric result: 3.6
- compound: "N#C[C@H]1CCCC[C@@H]1n1nc(Nc2cccc(CNCC(F)(F)F)c2)c2c(=O)[nH]ccc21"
  numeric result: 1.8
- compound: "CC(=O)NCc1cc(Nc2nn([C@H]3CCCC[C@@H]3C#N)c3cc[nH]c(=O)c23)ccc1S(=O)(=O)N(C)C"
  numeric result: 0.79
- compound: "CN(C)C(=O)c1ccc(Nc2nn([C@H]3CCCC[C@@H]3C#N)c3cc[nH]c(=O)c23)cc1C1CC1"
  numeric result: 5.7
- compound: "CCN1Cc2ccc(Nc3nn([C@H]4CCCC[C@@H]4C#N)c4cc[nH]c(=O)c34)cc2C1"
  numeric result: 2.1
- compound: "CN(C(C)(C)C)S(=O)(=O)c1ccc(Nc2nn([C@H]3CCCCC[C@@H]3C#N)c3cc[nH]c(=O)c23)cc1 (single isomer, unassigned)"
  numeric result: 18
- compound: "CSCc1cc(Cn2ccnn2)cc(Nc2nn([C@H]3CCCC[C@@H]3C#N)c3cc[nH]c(=O)c23)c1"
  numeric result: 4.4
- compound: "CC(O)(CO)c1cccc(Nc2nn([C@H]3CCCC[C@@H]3C#N)c3cc[nH]c(=O)c23)c1 (stereo partly drawn)"
  numeric result: 4
- compound: "CC(C)(C)N1Cc2cc(Nc3nn([C@H]4CCCC[C@@H]4C#N)c4cc[nH]c(=O)c34)ccc2C1=O"
  numeric result: 0.48
- compound: "N#C[C@H]1CCCC[C@@H]1n1nc(Nc2ccc(CN)cc2)c2c(=O)[nH]ccc21"
  numeric result: 0.82
- compound: "CN(C)[C@@H]1CC[C@H](n2nc(Nc3ccc(OC(F)(F)F)cc3)c3c(=O)[nH]ccc32)[C@@H](C#N)C1"
  numeric result: 22
- compound: "CC1(O)CN([C@@H]2CC[C@H](n3nc(Nc4ccc(Cl)cc4)c4c(=O)[nH]ccc43)[C@@H](C#N)C2)C1"
  numeric result: 6.5
- compound: "N#C[C@H]1C[C@@H](N2CCC2)CC[C@@H]1n1nc(Nc2ccc(OC(F)(F)F)cc2)c2c(=O)[nH]ccc21"
  numeric result: 31
- compound: "N#C[C@@H]1C[C@H](N2CCC2)CC[C@H]1n1nc(Nc2ccc(C(F)(F)F)cc2)c2c(=O)[nH]ccc21"
  numeric result: 940
- compound: "Cc1cc(Nc2nn([C@H]3CCCC[C@@H]3C#N)c3cc[nH]c(=O)c23)ccc1C(C)(C)n1nccn1"
  numeric result: 0.15
